tested on: CEM cells HIV-1 protection, formazan growth assay; experiment: NCI AIDS Antiviral Assay; conditions: measured here: growth of uninfected CEM cells
Where a SMILES comes first, the peptide text is derived from it. [ ]: non-standard residue; d: D form. The star is where a group is joined. Boc = CC(C)(C)OC(=O)*; Lac = C[CH](O)C(=O)O; OBn = c1ccc(CO*)cc1

COMPOUND	IC50
C=CCC1(C(C)C(O)c2cc(OC)c(OC)c(OC)c2)CC(O)C=CC12OCCO2 (stereo not drawn)	9.12 µM
CC(OC(=O)C(Cc1ccccc1)NC(=O)C(Cc1ccccc1)NC(=O)OC(C)(C)C)C(=O)OCc1ccccc1 (stereo not drawn) (Boc-Phe-Phe-[Lac]-OBn; configuration not given here)	105 µM
O=C(O)Cn1c[n+](NC(=O)Cc2ccccc2)cn1	> 200 µM
CC(C)(C)[Si](C)(C)OCC1OC(n2ccc(=O)[nH]c2=O)C(O[Si](C)(C)C(C)(C)C)C1C/C=[N+](/[O-])CC1OC(n2ccc(=O)[nH]c2=O)C(O[Si](C)(C)C(C)(C)C)C1O[Si](C)(C)C(C)(C)C (stereo not drawn)	> 100 µM
Cc1cc(O)c(C=O)c2c1C(=O)Oc1c(C)c(O)c(C(=O)O)c(C)c1O2	186 µM
COc1cc(O)c2c(c1)O[C@H](C)C(C)C2=O (stereo partly drawn)	> 200 µM
C[Si](C)(C)OC1c2[nH]c3ccccc3c2CN2C(=O)CCC12 (stereo not drawn)	> 200 µM
Brc1ccc(-c2ccc3nnnn3n2)s1	> 200 µM
